# assay-comment: NCI Yeast Anticancer Drug Screen. Data for the sgs1 mgt1 strain (AID 161);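 also: 0% = growth of cultures given vehicle only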
# reported-conditions: S. cerevisiae sgs1 mgt1 strain, at 50.0 µM, active compounds read high
This is part of a sample that, as a whole, favours compounds with a hit. Of some 79,000 tested, about 15% had one in any assay.
For each record, write down the corresponding growth inhibition.
Answers are plain numbers, in %.

See these solved cases before continuing.
| molecule | growth inhibition, % |
| --- | --- |
| O=C(NNC(O)C(F)(F)F)c1ccccc1 (stereo unspecified) | 10.1 |
| CCc1nc(N)nc(N)c1-c1ccc2c(c1)nnn2CCc1ccccc1 | 3.6 |
| OC(C1CCCCC1)(C1CCC2(CCCCC2)CC1)C1CCCC2CCCCC21 (stereo unspecified) | 30.9 |
| O=c1nc(NC2CC2)ccn1C1OC(CO)C(O)C1O (stereo unspecified) | -1 |
| O=C1NC(=O)[C@@H](OCC2CCCCC2)[C@@H]2OCC3OC(C(O)C3O)C12 (stereo partly specified) | 9.9 |
| O=C(N/N=C\c1ccc(Cl)cc1)c1ccccc1 | -0.1 |
| COc1cc(C=C2C(=O)NC(=O)NC2=O)ccc1OCc1ccccc1 | -1.1 |
| Cc1cccc(C)c1OC(=O)Nc1ccccc1 | 4.3 |

Record growth inhibition for all entries; do not skip any.
1. O=C(Oc1ccn(C2OC(CO)C(O)C2O)c(=O)c1)C12CC3CC(CC(C3)C1)C2 (stereo unspecified)
2. CCN(CC)CCCC(C)Nc1cc(C)c2nc(C)cc(C)c2c1C (stereo unspecified)

Out:
1: 25.2; 2: 17

In: Please give the measured growth inhibition for this molecule: Nc1nc(N)c2c(n1)NCN(OCOc1ccc(Cl)cc1)C2
Out: -4.7

----------
# assay-comment: NCI Yeast Anticancer Drug Screen. Data for the mlh1 rad18 strain (AID 175)
# reported-conditions: S. cerevisiae mlh1 rad18 strain growth inhibition; at 50.0 µM; active compounds read high
The panel holds about 79,000 compounds, 15% with a hit somewhere; the sample as a whole holds those more often. Active and inactive are the calls of the source. No stated cut-off is given here; in the data, active means growth inhibition above about 70%; inactive means the rest.
recorded-metric: growth inhibition

See these solved cases before continuing.
| compound | readout-value |
| --- | --- |
| CCCCCCCCCCCCCCCCCC#N | 39.9% (inactive) |
| O=[N+]([O-])c1ccc(N=CC2CCC=CO2)cc1 (stereo unspecified) | -14.9% (inactive) |
| COc1cc(O)c(C(C)c2ccccc2)cc1N=NC(N)=O (stereo unspecified) | 45.5% (inactive) |
| CC(=O)N1C(=O)NC(=O)C1(C)C | -7.15% (inactive) |
| COC(=O)CC1CSCC1=O (stereo unspecified) | 11.2% (inactive) |

Record growth inhibition for all entries; do not skip any.
1. O=C(c1ccc(Br)cc1)C(C(c1ccccc1)N1CCOCC1)N1CCOCC1 (stereo unspecified)
2. O=[N+]([O-])c1ccc(OC(=S)Oc2ccc([N+](=O)[O-])cc2)cc1
3. Cc1cc(C(N)=O)c2ccccc2n1
4. CCCCCCC(C)C(C#N)C(=O)OCC (stereo unspecified)

Out:
1: 31.9% (inactive); 2: 1.8% (inactive); 3: -6.25% (inactive); 4: -14.3% (inactive)

Record growth inhibition for all entries; do not skip any.
1. COc1ccc2c(c1)CCC1=C2CC2C(=O)C1(C)CCC2(C)OC(C)=O (stereo unspecified)
2. COc1ccc(CC2=c3cc(OC)c(OC)cc3=CCN2)cc1OC
3. Oc1c(O)c(O)c(O)c(O)c1O
4. CC1CC(=O)Nc2nc(N)ncc21 (stereo unspecified)
5. COc1ccc(Cl)cc1NC(=O)CC(C)=O

Out:
1. -14.2% (inactive)
2. -5.75% (inactive)
3. -3% (inactive)
4. 3.9% (inactive)
5. -5.95% (inactive)

Record growth inhibition for all entries; do not skip any.
1. CC(=O)C1=C(O)C(CSCc2ccccc2)NC1=O (stereo unspecified)
2. COc1ccc(NC(=O)C2C(=O)N(c3ccc(OC)cc3)C(=O)/C2=N\N)cc1 (stereo unspecified)

Out:
1: 15.2% (inactive); 2: 3.35% (inactive)

----------
# assay-comment: NCI Yeast Anticancer Drug Screen. Data for the mlh1 rad18 strain (AID 175)
# reported-conditions: S. cerevisiae mlh1 rad18 strain growth inhibition; at 50.0 µM; active compounds read high
# Protocol: Growth inhibition of yeast strains with defined genetic alterations is measured as a screen for potential anti-cancer activity. Selected strains with alterations in DNA damage repair or cell cycle control were exposed to compounds and growth inhibition was measured relative to vehicle treated controls. The strain used in this assay is mlh1 rad18
The panel holds about 79,000 compounds, 15% with a hit somewhere; the sample as a whole holds those more often.
recorded-metric: growth inhibition (%)
Give bare numbers, in %.

| molecule | growth inhibition, % |
| --- | --- |
| OCCN(CCO)c1ccc(-n2cnc3c(=S)nc[nH]c32)cc1 | -4.15 |
| COCOS(C)(=O)=O | -3.65 |

Record growth inhibition for all entries; do not skip any.
1. CC(=O)[C@@]1(O)CC[C@H]2[C@@H]3C[C@H](C)C4=CC(=O)C=C[C@]4(C)[C@@]3(F)[C@@H](O)C[C@@]21C
2. CCO/C=C1/N=C(c2ccc(OC)c(OC)c2)OC1=O
3. N#CC(=Nc1ccccc1)c1cccc(Br)c1
4. CC(C)NC(=O)c1ccccc1-[s+]1c2ccccc2c(=O)n1C(C)C (stereo not drawn)
5. O=C1O[C@@H](c2ccc3c(c2)OCO3)C2C(=O)O[C@@H](c3ccc4c(c3)OCO4)C12 (stereo partly drawn)
6. Cc1ccc(C(C(=O)O)c2ccc(C)cc2)cc1

Out:
1. -22.1
2. 12.2
3. 28.4
4. 9.3
5. 21.7
6. 29.2

----------
# assay-comment: NCI Yeast Anticancer Drug Screen. Data for the bub3 strain (AID 167)
# reported-conditions: S. cerevisiae bub3 mutant strain, at 50.0 µM, active compounds read high
This is part of a sample that, as a whole, favours compounds with a hit. Of some 79,000 tested, about 15% had one in any assay.
For each record, write down the corresponding growth inhibition.
Give bare numbers, in %.

| compound | units-of-measure | readout-value |
| --- | --- | --- |
| Nc1cccc2ncccc12 | % | -1.95 |
| Clc1cccc2c(SCCCCCSc3c4ccccc4nc4c(Cl)cccc34)c3ccccc3nc12 | % | -23.9 |
| O=[N+]([O-])C(C=Nc1ccccc1)C=Nc1ccccc1 (configuration not stated) | % | -13.4 |
| CCCCS(=O)(=O)Nc1cccc(C(=O)O)c1 | % | 39.8 |
| CN(C)c1ccc(/C=C(\C#N)c2c(Cl)cccc2Cl)cc1 | % | 8.3 |

Record growth inhibition for all entries; do not skip any.
1. O=c1[nH]cc(SSc2c[nH]c(=O)[nH]c2=O)c(=O)[nH]1
2. CN(C)S(=O)(=O)C(c1ccccc1)C(c1ccccc1)S(=O)(=O)N(C)C (configuration not stated)
3. Oc1cccc(C=NCCN=Cc2cccc(O)c2O)c1O.[Fe]
4. COc1cccc2c1OC(=O)NC2O (configuration not stated)
5. NC12CC3CC(C1)CC(C(=O)O)(C3)C2
6. CC1=NN(c2nc(N)nc(CO)n2)C(C)(C)C1

Out:
1: 29.9; 2: -4.75; 3: 13.2; 4: -20.4; 5: 6.7; 6: 1

----------
# assay-comment: NCI Yeast Anticancer Drug Screen. Data for the sgs1 mgt1 strain (AID 161);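 also: 0% = growth of cultures given vehicle only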
# reported-conditions: S. cerevisiae sgs1 mgt1 strain, at 50.0 µM, active compounds read high
# Protocol: Growth inhibition of yeast strains with defined genetic alterations is measured as a screen for potential anti-cancer activity. Selected strains with alterations in DNA damage repair or cell cycle control were exposed to compounds and growth inhibition was measured relative to vehicle treated controls. The strain used in this assay is sgs1 mgt1
About 79,000 compounds went through this panel and 15% of them were active in at least one assay; those are over-represented in the sample as a whole. *1 amine or outer side, *2 acyl side, *3 side chain or, on linkers, in order; H or OH if unused. Where a SMILES comes first, the peptide text is derived from it. Bridges are numbered along the chain shown (N, C = ends). Roman numbers before positions name the chains, in order. [ ]: non-standard residue; d: D form. Actinocin(9to1) = Cc1c2oc3c(C)ccc(C(=O)[*:1])c3nc-2c(C(=O)[*:2])c(N)c1=O; NMeF = CN[CH](Cc1ccccc1)C(=O)O; Sar = CNCC(=O)O
For each record, write down the corresponding growth inhibition.
Give bare numbers, in %.

See these solved cases before continuing.
| compound | recorded-metric | readout-value |
| --- | --- | --- |
| Nc1cc2c(cc1Br)-c1ccc(Cl)cc1C2=O | growth inhibition | 7.3 |
| C=CCNC(=S)Nc1cccc(OC(=O)Nc2ccc(Cl)c(Cl)c2)c1 | growth inhibition | -18.4 |
| CC(c1ccccc1)C1OCC(CCCCO)O1 (stereo unspecified) | growth inhibition | -10.7 |
| CC(=O)OCc1ccc(C)c(COC(C)=O)c1 | growth inhibition | -9.4 |
| CN(C)CCCN1CCc2c([nH]c3ccccc23)C1c1cccnc1 (stereo unspecified) | growth inhibition | -0.45 |

Record growth inhibition for all entries; do not skip any.
1. CCOC(=O)/C(=C\c1cc(OC)ccc1OC)P(=O)(OCC)OCC
2. CC(=O)CC(C)(C)OCc1ccccc1
3. N#C/C(=C\c1ccccn1)c1nc(-c2ccc(Cl)cc2)cs1
4. O=C(O)c1ccc2ccc(F)cc2c1Cc1ccccc1

Out:
[18.4, -12.2, -12.7, 12.9]

Record growth inhibition for all entries; do not skip any.
1. CC(=O)Nc1ccc(S(=O)(=O)N2c3ccccc3Sc3ccccc32)cc1
2. Cc1ccccc1N=Cc1ccc(N(CCC#N)S(=O)(=O)c2ccccc2)cc1
3. CCN(CC)CCOC(=O)OCCN(CC)CC
4. O=S1OC(c2ccccc2)C(c2ccccc2)O1 (stereo unspecified)

Out:
1: 4.95; 2: 19.9; 3: -7.3; 4: -4.55

Record growth inhibition for all entries; do not skip any.
1. NC(=O)SCC(N)C(=O)O (stereo unspecified)
2. Cc1c2oc3c(C)ccc(C(=O)NC4C(=O)NC(C(C)C)C(=O)N5CCCC5C(=O)N(C)CC(=O)N(C)C(Cc5ccccc5)C(=O)OC4C)c3nc-2c(C(=O)NC2C(=O)NC(C(C)C)C(=O)N3CCCC3C(=O)N(C)CC(=O)N(C)C(Cc3ccccc3)C(=O)OC2C)c(N)c1=O (stereo unspecified) (I: TVP[Sar][NMeF] / II: TVP[Sar][NMeF]; ester I:1-I:C, II:1-II:C; linker I:N-II:N via Actinocin(9to1); configuration not given here)
3. Cc1ncc(-c2ccccc2)o1
4. COc1ccc(C(=O)/C=C/c2cc(C(C)(C)C)c(O)c(C(C)(C)C)c2)cc1

Out:
1. 1.55
2. -12.7
3. -1.75
4. 14.6

Record growth inhibition for all entries; do not skip any.
1. Cc1cnc2nc(C)c(C)nc2n1
2. CCCCc1c(O)c2c(=O)n(C)c(=O)n3c4ccccc4n(c1=O)c23
3. CC1COC(C(C)C)(C(C)C)O1 (stereo unspecified)
4. Cc1ccc(-n2cc(-c3ccc(Cl)cc3)c3c2N=CN2NC(c4cccs4)=NC32)cc1 (stereo unspecified)

Out:
[2.35, -1, -4.2, -18.9]

Source: PubChem BioAssay (NCI)
